Reported values of LIVER for individual entries
Species on record: Rattus norvegicus
Assay: Open TG-GATES - Regimen: Daily Repeat
Assay type: toxicity, organism-based, Sprague-Dawley
Set-up: regimen Daily Repeat, gender Male, age 6 weeks
Details: in vivo, po, 0 mg/kg, […], tissue Liver, route gavage, dose level Control, time 14 day
experimental.endpoint: LIVER

[[record]]
molecule = "CCOC(=O)[C@H](CCc1ccccc1)N[C@@H](C)C(=O)N1CCC[C@H]1C(=O)O"
test_value = "15.8 g"

[[record]]
molecule = "C#C[C@]1(O)CC[C@H]2[C@@H]3CCC4=Cc5oncc5C[C@]4(C)[C@H]3CC[C@@]21C"
test_value = "14.6 g"

[[record]]
molecule = "CN1C(C(=O)Nc2ccccn2)=C(O)c2sc(Cl)cc2S1(=O)=O"
test_value = "14.5 g"


Reference source: ChEMBL document CHEMBL3885861
